tested on: CEM cells HIV-1 protection, formazan growth assay; assay: NCI AIDS Antiviral Assay; settings: measured here: growth of uninfected CEM cells
pIC50: −log10 of the molar value.
Given measured pIC50, output true (1) if it is greater than or equal to 5 and false (0) if not.

# example entries with known answers
CC1=NN(c2ccc(S(=O)(=O)O)cc2)C(=O)C1N=Nc1ccc(-c2ccc(N=Nc3ccc(OS(=O)(=O)c4ccc(C)cc4)cc3)c(S(=O)(=O)O)c2)cc1 (stereo not given)    false (0)
Clc1ccc2c(SCC3CO3)c3ccccc3nc2c1 (stereo not given)    true (1)
CC(C)(C)C#CI1OC(=O)c2ccccc21    true (1)
CC(=O)OC1(C)C=Cc2ccccc2/C1=N/S(=O)(=O)c1ccccc1 (stereo not given)    false (0)
O=C(Nc1ccccc1)c1cc(S(=O)(=O)n2cc[nH]c2=O)c(S)cc1Cl    false (0)

Task: Please check the record CC(=O)N1C(Nc2nccs2)CCN1c1ccccc1 (stereo not given) and state if its pIC50 is at or above 5.
Result: false (0)

Task: In plain terms: is recorded pIC50 at least 5 for Cn1c(-c2ccccc2)cc(-c2ccc3c(c2)OCO3)c1-c1ccsc1 ?
Result: false (0)

Task: Entry CCOP(=O)(OCC)/C(C#N)=C/c1ccc(OC)cc1 : is its pIC50 no less than 5?
Result: false (0)

Task: Kindly determine if pIC50 recorded for Cc1cn(COCC(O)C[N+](=O)[O-])c(=O)[nH]c1=O (stereo not given) is above or exactly 5.
Result: false (0)
